assaySystem: T1, rh integrin α4β7 (R&D Systems #5397-A30) (human, UniProt P13612 34-970; P26010 20-723)
T1 construct: bought; coated on a nickel coated plate; also called immobilized α4β7; immobilized α4β7 integrin protein
assaySummary: competition ELISA vs MAdCAM-1
Bridge positions count the residues as written; N and C are the ends. Square brackets hold non-standard residues; d marks the D form. Phe(4-tBu) = CC(C)(C)c1ccc(C[C@H](N)C(=O)O)cc1; NMeR = CN[C@@H](CCCNC(=N)N)C(=O)O; β3hE = N[C@@H](CCC(=O)O)CC(=O)O; Pen = CC(C)(S)[C@H](N)C(=O)O
List of IC50 values.

{"binder": "Ac-[Pen][NMeR]SDTL[Pen][Phe(4-tBu)][β3hE][dK]-NH2 (disulfide 1-7; not fully specified (residue 10); printed as (Ac Pen N-Me-R S D T L Pen F(4-tBu) b-H-E k NH2)2 IDA Alexa-488, disulfide Pen-Pen; also: homodimer: two subunits joined by IDA linker, Alexa-488 label on the linker) [SEQ ID NO: 182]", "propertyMeasured": "IC50", "result": "≤ 10 nM"}
{"binder": "Ac-[Pen][NMeR][dD]DTL[Pen]WE[dK]-NH2 (disulfide 1-7; SMILES CC(=O)N[C@@H]1C(=O)N(C)[C@@H](CCCNC(=N)N)C(=O)N[C@H](CC(=O)O)C(=O)N[C@@H](CC(=O)O)C(=O)N[C@@H]([C@@H](C)O)C(=O)N[C@@H](CC(C)C)C(=O)N[C@H](C(=O)N[C@@H](Cc2c[nH]c3ccccc23)C(=O)N[C@@H](CCC(=O)O)C(=O)N[C@H](CCCCN)C(N)=O)C(C)(C)SSC1(C)C) [SEQ ID NO: 48]", "propertyMeasured": "IC50", "result": "> 1000 nM"}

Field: next binder
Answer with the recorded IC50 for the binder listed here: Ac-[Pen][NMeR]SDTL[Pen]WE[dK]-OH (disulfide 1-7; not fully specified (residue 10); printed as (Ac Pen N-Me-R S D T L Pen W E k OH)2 DIG, disulfide Pen-Pen; also: homodimer: two subunits linked by DIG via D-Lys10 side chain) [SEQ ID NO: 78] ≤ 10 nM
